- ASSAYED SYSTEM: human PXR (Homo sapiens, UniProt O75469)
- Sequence (O75469 whole entry): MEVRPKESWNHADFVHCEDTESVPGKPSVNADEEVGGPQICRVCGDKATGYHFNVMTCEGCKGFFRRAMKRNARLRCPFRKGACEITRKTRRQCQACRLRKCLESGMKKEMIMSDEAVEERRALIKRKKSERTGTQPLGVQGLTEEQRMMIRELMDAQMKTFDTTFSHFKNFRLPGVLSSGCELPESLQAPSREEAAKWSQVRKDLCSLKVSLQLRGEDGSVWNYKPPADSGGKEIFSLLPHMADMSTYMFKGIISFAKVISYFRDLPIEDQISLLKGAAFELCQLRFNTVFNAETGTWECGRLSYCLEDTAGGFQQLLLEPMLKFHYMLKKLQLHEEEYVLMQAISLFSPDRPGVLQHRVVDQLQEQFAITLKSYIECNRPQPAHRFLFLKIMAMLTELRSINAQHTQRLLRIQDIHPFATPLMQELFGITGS
- METHOD SUMMARY: PXR activation luciferase reporter assay, human PXR in HepG2-NTCP cells
- EXPERIMENTAL CONDITIONS: -log(EC50), EC50 in molar units, activation of human PXR
QUANTITY: hPXR Activity

Solved cases below.
1. CCOC(=O)c1ccccc1N [MI14, Ethyl-2-aminobenzoate] = None
2. C[C@H]([C@H](O)CCC(C)(C)O)[C@H]1CC[C@@]2(O)C3=CC(=O)[C@@H]4C[C@@H](O)[C@@H](O)C[C@]4(C)[C@H]3CC[C@]12C [MI13, Ecdysone] = None
3. CC(CCC[C@@H](C)[C@H]1[C@H](O)C[C@H]2[C@@H]3[C@H](O)C[C@H]4C[C@@H](OS(=O)(=O)O)CC[C@]4(C)[C@H]3CC[C@]12C)COS(=O)(=O)O (stereo partly drawn) [BI39, 5α-Cholestan-7α,16α-diol-3β,27-disulfate] = None
4. C[C@H](CCC(=O)NCCS(=O)(=O)O)[C@H]1CC[C@H]2[C@@H]3[C@@H](O)[C@@H](O)[C@@H]4C[C@H](O)CC[C@]4(C)[C@H]3CC[C@]12C [BI046] = None
5. C[C@]12CC[C@@H](O[C@@H]3O[C@H](C(=O)O)[C@@H](O)[C@H](O)[C@H]3O)C[C@H]1CC[C@@H]1[C@@H]2CC[C@]2(C)C(=O)CC[C@@H]12 [AN18, 5β-Androstan-3α-glucosiduronate-17-one] = None
6. CC(C)CCC[C@@H](C)[C@H]1CC[C@H]2[C@@H]3[C@H](O)C=C4C[C@@H](O)CC[C@]4(C)[C@H]3CC[C@]12C [BI047, 7α-Hydroxycholesterol] = None
7. C[C@]12CC[C@@H](O)C[C@H]1CC[C@@H]1[C@@H]2[C@@H](O)C[C@]2(C)C(=O)CC[C@@H]12 [AN11, 5β-Androstan-3α,11β-diol-17-one] = 4.72
8. C[C@H](CCC(=O)O)[C@H]1CC[C@H]2[C@@H]3CC[C@@H]4C[C@H](OS(=O)(=O)O)CC[C@]4(C)[C@H]3CC[C@]12C [BI41, 5β-Cholanic acid-3α-sulfate] = 3.93

I have 2 compounds here; please give me hPXR Activity for each one.
1. c1ccc2c(c1)cc1ccc3cccc4ccc2c1c34 [MI3, Benzo [a]pyren]
2. C[C@]12CC[C@@H]3c4ccc(OC5O[C@H](C(=O)O)[C@@H](O)[C@H](O)[C@H]5O)cc4CC[C@H]3[C@@H]1CC[C@@H]2O (stereo partly shown) [ES9]

[out]
[4.75, "None"]

====

In what follows, each item is paired with its Toxicity for HepG2 cells.

1) CC(O)C1CCC2C3CCC4CC(O)CCC4(C)C3CCC12C (stereo not drawn) [PR1, 5β-Pregnan-3α,20α-diol] = 100 µM
2) C[C@]12CC[C@@H](O)C[C@H]1CC[C@@H]1[C@@H]2C(=O)C[C@@]2(C)[C@H]1CC[C@]2(O)[C@@H](O)CO [PR18, 5β-Pregnan-3α,17,20α-21-tetrol-11-one] = 200 µM
3) CC(C)CCC[C@@H](C)[C@H]1CC[C@H]2[C@@H]3[C@H](O)C=C4C[C@@H](O)CC[C@]4(C)[C@H]3CC[C@]12C [BI047, 7α-Hydroxycholesterol] = None
4) C[C@H](CC(=O)O)[C@H]1CC[C@H]2[C@@H]3CC[C@@H]4C[C@H](O)CC[C@]4(C)[C@H]3C[C@H](O)[C@]12C [BI26, 23-Nordeoxycholic acid] = None
5) C[C@]12CCC(=O)C=C1CC[C@@H]1[C@@H]2CC[C@]2(C)C(=O)CC[C@@H]12 [AN7, 4-Androsten-3,17-dione] = None

We next turn to a different compound, shown below.
[in] Tell me measured Toxicity for CC(CCCC(CO)COS(=O)(=O)O)[C@H]1CCC2C3C(C[C@H](O)[C@@]21C)[C@@]1(C)CC[C@@H](O)C[C@@H]1C[C@H]3O (stereo partly drawn) [BI036] please.
[out] None
